Species on record: Sus scrofa
Test: Inhibition of porcine kidney Alpha alpha-trehalase using p-nitrophenyl glycoside as substrate assessed as release of p-nitrophenol at 1000 uM by spectrometric analysis relative to control
observable: inhibition (%)
Field: numeric (%). Do not append units.

Bench note: what inhibition did O[C@@H]1[C@@H]2[C@H](O)CCCN2C[C@@H]1O show?
0

What would you report for O[C@@H]1[C@@H]2[C@H](O)C[C@@H](F)CN2C[C@@H]1O ?
11.7

What would you report for O[C@H]1[C@H]2[C@@H](O)CCCN2C[C@H]1O ?
0

What would you report for O[C@H]1[C@H]2[C@@H](O)C[C@@H](F)CN2C[C@H]1O ?
4.6

What would you report for O[C@H]1[C@H]2[C@H](O)CCCN2C[C@H]1O ?
1

What would you report for O[C@H]1[C@H]2[C@H](O)C[C@@H](F)CN2C[C@H]1O ?
2.5

What would you report for O[C@@H]1[C@@H]2[C@H](O)CC(F)(F)CN2C[C@@H]1O ?
1.5

What would you report for O[C@@H]1[C@@H]2[C@H](O)C[C@H](F)CN2C[C@@H]1O ?
0.5

What would you report for O[C@H]1[C@H]2[C@H](O)C[C@H](F)CN2C[C@H]1O ?
4.1

What would you report for O[C@@H]1[C@@H]2[C@@H](O)CC(F)(F)CN2C[C@@H]1O ?
28.4

What would you report for O[C@H]1[C@H]2[C@@H](O)CC(F)(F)CN2C[C@H]1O ?
1.5

What would you report for O[C@H]1[C@H]2[C@H](O)CC(F)(F)CN2C[C@H]1O ?
0

What would you report for O[C@@H]1[C@@H]2[C@@H](O)C[C@@H](F)CN2C[C@@H]1O ?
36

---

Molecular target: Alpha-mannosidase (Canavalia ensiformis)
Sequence (C0HJB3 whole entry): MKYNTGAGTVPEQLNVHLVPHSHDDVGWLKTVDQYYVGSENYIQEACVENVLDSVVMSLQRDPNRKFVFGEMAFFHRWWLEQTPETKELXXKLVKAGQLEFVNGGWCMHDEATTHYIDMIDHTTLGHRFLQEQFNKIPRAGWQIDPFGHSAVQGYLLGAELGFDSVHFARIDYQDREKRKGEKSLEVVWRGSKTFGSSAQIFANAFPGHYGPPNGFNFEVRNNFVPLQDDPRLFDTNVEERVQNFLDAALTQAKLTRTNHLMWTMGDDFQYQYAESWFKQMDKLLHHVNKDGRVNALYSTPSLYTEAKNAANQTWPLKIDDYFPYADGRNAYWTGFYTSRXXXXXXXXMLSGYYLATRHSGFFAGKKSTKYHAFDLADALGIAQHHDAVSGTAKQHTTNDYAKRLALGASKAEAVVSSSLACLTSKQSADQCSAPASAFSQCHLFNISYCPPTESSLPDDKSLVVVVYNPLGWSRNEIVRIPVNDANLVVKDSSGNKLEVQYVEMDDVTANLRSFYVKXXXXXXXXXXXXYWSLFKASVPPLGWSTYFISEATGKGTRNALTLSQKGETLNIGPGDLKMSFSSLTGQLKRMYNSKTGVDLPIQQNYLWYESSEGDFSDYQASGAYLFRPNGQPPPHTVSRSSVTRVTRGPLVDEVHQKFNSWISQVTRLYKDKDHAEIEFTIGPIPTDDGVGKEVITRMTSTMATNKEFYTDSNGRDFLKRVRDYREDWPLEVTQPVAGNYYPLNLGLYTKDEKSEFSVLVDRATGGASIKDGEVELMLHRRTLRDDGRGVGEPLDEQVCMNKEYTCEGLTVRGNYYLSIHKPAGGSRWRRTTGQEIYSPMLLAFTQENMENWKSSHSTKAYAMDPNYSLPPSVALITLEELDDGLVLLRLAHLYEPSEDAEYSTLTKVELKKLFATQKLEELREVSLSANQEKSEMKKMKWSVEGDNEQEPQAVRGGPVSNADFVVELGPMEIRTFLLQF
observable: pKi
Note: pKi values are expressed as the negative base-10 logarithm of concentration in M.

Bench note: what pKi did NCC/N=C1/N[C@H](CO)[C@@H](O)[C@@H](O)[C@@H]1O show?
8.22
